B1: CDC25A (parent)
chain: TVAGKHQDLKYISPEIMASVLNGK

variants of: B1; experiment: protein stability index of a GFP-peptide fusion (GPS, HEK-293T) (PSI 1-6); higher = more stable; details: c terminus: a fixed tail appended;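 also: lentivirally expressed fusions sorted by FACS into six bins by GFP to DsRed ratio, PSI derived from sequencing read proportions per bin multiplied by bin number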
I'd be grateful if you could share measured protein stability index for these entries.
One number for each entry.

{"columns": ["mutation_name", "readout_kind", "endpoint_value"],
 "data": [
  ["V2T", "protein stability index", 3.41]
]}

Hi! Can you tell me protein stability index for each of these variants?
1. K24V
2. M17N
3. G4C
4. N22E
5. I12K
6. S19D

**Result**
1: 2.09; 2: 3.74; 3: 2.82; 4: 3.92; 5: 3.83; 6: 3.41
